Test: gradient 5% acetonitrile 3 min, to 50% in 2 min, to 85% in 15 min, held 3 min, 100 µL/min
Conditions: column: Zorbax Extend-C18 2.1 x 50 mm; eluents: water / acetonitrile, 0.1% formic acid
Measured endpoint: RP-LC retention time (s)

Below: 5 compounds and their reported RP-LC retention time.
[
  {
    "Compound": "O=C(NC1CCCCC1)c1ccc(CN2CCN(C3CCCC3)C(=O)C2=O)cc1",
    "Uom": "s",
    "RP-LC retention time": 831
  },
  {
    "Compound": "CC(=O)NS(=O)(=O)c1ccc(NC(=O)NC2CC(=O)N(c3ccc(C)cc3)C2)cc1 (stereo not given)",
    "Uom": "s",
    "RP-LC retention time": 651
  },
  {
    "Compound": "Cc1ccc(CN2CC(Cn3c(C)cnc3-c3ccncc3)C2)o1",
    "Uom": "s",
    "RP-LC retention time": 611
  },
  {
    "Compound": "CCN1C(=O)COc2ccc(-c3csc(NC(=O)c4ccncc4)n3)cc21",
    "Uom": "s",
    "RP-LC retention time": 748
  },
  {
    "Compound": "Cc1ccc(CNC(=O)CCNc2c(-c3ccccc3C)nc3cnccn23)o1",
    "Uom": "s",
    "RP-LC retention time": 631
  }
]

P: CCC(=O)N(C1CCOCC1)C1CCN(S(=O)(=O)c2cc(F)cc(F)c2)CC1
Q: COc1cccc(C2Cn3nnc(-c4nc(-c5cccc(C(F)(F)F)c5)no4)c3CO2)c1 (stereo not given)
R: Cc1ccc2c(C(=O)N3CCN(Cc4ccccc4)CC3)cc(NC(=O)C(C)C)cc2n1
Sort low-to-high on RP-LC retention time, please. Form entry: ranked labels (order as requested). R, P, Q
(R: 571 s, P: 856 s, Q: 1270 s)

a: Cc1cc(NS(=O)(=O)c2ccc3c(c2)CCCC(=O)N3)ccc1Br
b: O=C(COc1ccc(F)cc1)Nc1ccc(-c2nc(-c3ccc(F)cc3)no2)cc1
Which of the two gives a bigger number for RP-LC retention time: a or b ? // output: label of the selected item b
(b: 1220 s, a: 774 s)

----------
Test: gradient 5% acetonitrile 3 min, to 50% in 2 min, to 85% in 15 min, held 3 min, 100 µL/min
Conditions: column: Zorbax Extend-C18 2.1 x 50 mm; eluents: water / acetonitrile, 0.1% formic acid
Measured endpoint: RP-LC retention time (s)

Sample answers from the record:
[
  {
    "Compound": "Cc1ccc(-c2cc3c(=O)n(Cc4noc(CN5CCCCC5C)n4)ccn3n2)cc1C (centres undefined)",
    "RP-LC retention time, s": 730
  },
  {
    "Compound": "CCCC(=O)Nc1ccc2c(c1)nc(CN1CCCC1)n2C(C)C",
    "RP-LC retention time, s": 586
  }
]

1: Cc1noc(-c2ccc(-n3cnc(C(=O)NC4CCCCCC4)c3)nc2)n1
2: O=C(c1cccs1)N1CCN(c2nnc3ccccn23)CC1
Of 1 and 2 , whose reported RP-LC retention time is the larger number? Answer by quoting the chosen item's label. 1
(1: 896 s, 2: 608 s)

----------
Test: gradient 5% acetonitrile 3 min, to 50% in 2 min, to 85% in 15 min, held 3 min, 100 µL/min
Details: column: Zorbax Extend-C18 2.1 x 50 mm; eluents: water / acetonitrile, 0.1% formic acid
Measured endpoint: RP-LC retention time (s)

Example cases with answers are listed next.
[
  {
    "Compound": "CSc1ccc(NC(=O)NC2CCN(c3ccc(C)c(C)c3)C2=O)cc1 (stereo unspecified)",
    "Reported": 897
  },
  {
    "Compound": "O=C(Nc1ccc2c(c1)CCCN2C(=O)C1CC1)c1cc(Br)ccc1Cl",
    "Reported": 879
  },
  {
    "Compound": "O=C(NCc1ccccc1)c1nnc(-c2ccc(S(=O)(=O)N3CCCC3)cc2)o1",
    "Reported": 879
  },
  {
    "Compound": "O=C(NCCc1csc(C2CCN(C(=O)C3CCCC3)CC2)n1)C1CC1",
    "Reported": 690
  },
  {
    "Compound": "CN(C)c1nc2ncn3c(=O)n(CC(=O)Nc4cc(F)cc(F)c4)nc3c2s1",
    "Reported": 741
  }
]

A: CC1CCC(NC(=O)c2nnc(-c3ccc(S(=O)(=O)N4CCC(C)CC4)cc3)o2)CC1 (stereo unspecified)
B: O=c1cc(CSc2nc(NCc3ccc4c(c3)OCO4)c3ccccc3n2)nc2ccccn12
Between the entries labeled A and B , whose measured RP-LC retention time is lower? Please respond with the label that marks your chosen entry. B

----------
Experiment: gradient 5% acetonitrile 3 min, to 50% in 2 min, to 85% in 15 min, held 3 min, 100 µL/min
Details: column: Zorbax Extend-C18 2.1 x 50 mm; eluents: water / acetonitrile, 0.1% formic acid
Measured endpoint: RP-LC retention time (s)

[
  {
    "Compound": "O=C(NCCOc1ccc(F)cc1)C1CN(C(=O)c2cccs2)C1",
    "Measured endpoint": "RP-LC retention time",
    "Reported": 691
  },
  {
    "Compound": "O=C(CN1CCN(Cc2ccc(F)cc2)C1=O)NCc1ccc(F)cc1F",
    "Measured endpoint": "RP-LC retention time",
    "Reported": 809
  },
  {
    "Compound": "CCC(C)C(NC(=O)c1ccc(OC)cc1)C(=O)Nc1nc2ccccc2[nH]1 (stereo not drawn)",
    "Measured endpoint": "RP-LC retention time",
    "Reported": 700
  }
]

----------
Assay: gradient 5% acetonitrile 3 min, to 50% in 2 min, to 85% in 15 min, held 3 min, 100 µL/min
Details: column: Zorbax Extend-C18 2.1 x 50 mm; eluents: water / acetonitrile, 0.1% formic acid
Measured endpoint: RP-LC retention time (s)

Examples from the recorded data:
[
  {
    "Molecule": "CNC(=O)C1CCCN(c2nc3ncn(CC(=O)Nc4cc(F)cc(F)c4)c(=O)c3s2)C1 (configuration not stated)",
    "Reported": 681
  },
  {
    "Molecule": "COc1ccccc1N1CCN(C(=O)c2cc(S(=O)(=O)N3CCCCC3)cn2C)CC1",
    "Reported": 893
  },
  {
    "Molecule": "CCc1ccccc1N1C=C(C(=O)OC)S(=O)(=O)c2ccccc21",
    "Reported": 918
  },
  {
    "Molecule": "CCOc1ccc(NS(=O)(=O)c2ccc(-c3nnc(C4CCC4)o3)o2)cc1",
    "Reported": 922
  },
  {
    "Molecule": "Cc1cc(OC(C)C(=O)Nc2ccnn2Cc2ccco2)ccc1Cl (configuration not stated)",
    "Reported": 921
  },
  {
    "Molecule": "CCN(C(=O)Cn1c(CN(C)C(=O)c2ccco2)nc2ccccc21)c1ccccc1",
    "Reported": 704
  },
  {
    "Molecule": "O=C(c1ccoc1)N1CCCCC1c1nncn1Cc1ccccc1 (configuration not stated)",
    "Reported": 689
  },
  {
    "Molecule": "COc1ncccc1C(=O)NCCCn1nc(-c2ccc(F)cc2)ccc1=O",
    "Reported": 734
  }
]

A: Cc1noc(C)c1CN1CCC(NC(=O)c2cc(Cl)ccc2F)C1 (configuration not stated)
B: Cc1ccc2c(c1)N(Cc1cccc(F)c1)N=C(C(=O)N1CCC(C)CC1)S2(=O)=O
Lab log: flag the item ( A or B ) with the smaller RP-LC retention time figure. Please indicate the selected item by its label. A

a: CC1=C(c2ccccc2)S(=O)(=O)N=C1N1CCCN(C(=O)c2ccc(C#N)cc2)CC1
b: CCOc1ccc(-c2ccc(=O)n(Cc3nc(-c4ccc(C)cc4)no3)n2)cc1
I would appreciate it if you could say which entry, a or b , has the lower RP-LC retention time value. Please respond with the label that marks your chosen entry. a

----------
Test: gradient 5% acetonitrile 3 min, to 50% in 2 min, to 85% in 15 min, held 3 min, 100 µL/min
Details: column: Zorbax Extend-C18 2.1 x 50 mm; eluents: water / acetonitrile, 0.1% formic acid
Measured endpoint: RP-LC retention time (s)

# example entries with known answers
[
  {
    "Compound": "Cc1ccc(C)c(Cn2nc3ccc(S(=O)(=O)N4CCCC4)cn3c2=O)c1",
    "Uom": "s",
    "RP-LC retention time": 915
  },
  {
    "Compound": "CCc1cccc(NS(=O)(=O)c2cn(CC(C)C)c3ncccc23)c1",
    "Uom": "s",
    "RP-LC retention time": 1070
  },
  {
    "Compound": "COc1ccc(Cl)cc1NC(=O)N1CCCC(Cn2cnc3cccnc32)C1 (stereo unspecified)",
    "Uom": "s",
    "RP-LC retention time": 761
  },
  {
    "Compound": "Cc1ccc(C)c2c(=O)c3c([nH]c12)CCN(CC(=O)Nc1ccc(F)cc1)C3",
    "Uom": "s",
    "RP-LC retention time": 634
  },
  {
    "Compound": "CCc1nnc(NS(=O)(=O)c2ccc(N)cc2)s1",
    "Uom": "s",
    "RP-LC retention time": 711
  }
]

a: Cc1ccc2[nH]c(=O)nc(-c3ccccc3)c2c1
b: Clc1ccccc1-c1nnc(-c2ccccc2Cl)o1
Exercise: compare a and b ; which one has the greater RP-LC retention time? Mark your answer with the label of the selected entry. b
